- Tgt: Endothelial PAS domain-containing protein 1 (Homo sapiens)
- Experiment description: HIF-2a and HIF-1a reporter inhibition panel, dose response, selectivity assay for HIF-2a inhibitor project, cell-based, luminescence (AID 651581)
- Condition context: HIF-2a PANC, run 2
pIC50: −log10 of the molar value.
# key: entry, value: pIC50
Endpoint name: pIC50

>>> reported_value("Cc1nc2cc(-c3cccc(F)c3)nn2c(C)c1CCC(=O)NC(C)c1ccc2c(c1)OCCO2 (stereo unspecified)")
4.93
>>> reported_value("CCOC(=O)C1CCN(Cc2cc(=O)oc3c(C)c(C)ccc23)CC1")
5.06
>>> reported_value("Cc1nc(SCc2ccc(C(=O)O)cc2)nc2c1CCCC2")
4.63
>>> reported_value("C/C(=N\\NC(=O)c1n[nH]c2c1CCC2)c1cccs1")
4.81
>>> reported_value("S=C(c1ccc(-c2ccccc2)cc1)N1CCOCC1")
5.51
>>> reported_value("Cc1c(CCC(=O)NCCC(=O)O)c(=O)oc2c(C)c3oc4c(c3cc12)CCCC4")
5.53
>>> reported_value("CC(=O)Nc1ccc(OCC(=O)c2ccc(C)cc2C)cc1")
5.27
>>> reported_value("O=C1C=C(c2ccc(Cl)cc2)C(=O)N1Nc1ccccc1")
4.12
>>> reported_value("O=C(Nc1ccc(N2CCOCC2)cc1)c1cnccn1")
4.48
>>> reported_value("CCOc1ccc(C(=O)Nc2nnc(SCC(=O)NCC3CCCO3)s2)cc1 (stereo unspecified)")
4.14
>>> reported_value("COCCn1c(C)cc(C(=O)CSc2nnc(C)s2)c1C")
4.92
>>> reported_value("COc1ccc(-c2cnc3c(NC=O)cc(-c4cccc(NS(C)(=O)=O)c4)cn23)cc1OC")
5.30
>>> reported_value("CCOC(=O)c1cccc(NC(=O)Nc2ccc(OCC)cc2)c1")
4.48
>>> reported_value("Cc1cccc(NC(=S)NNc2ncc(C(F)(F)F)cc2Cl)c1")
5.77
>>> reported_value("O=c1[nH]c2ccc(Br)cc2c(=O)o1")
4.23
>>> reported_value("Cc1nnnn1/C(=C\\c1ccccc1)C(=O)OCC(=O)Nc1cccc(S(=O)(=O)N(C)C)c1")
4.62
>>> reported_value("CCNC(=O)NC(=O)COC(=O)CCCSc1nc2ccccc2s1")
4.87
>>> reported_value("O=C(O)c1ccc(N/N=C/c2ccc3ncccc3c2)cc1")
4.71
>>> reported_value("CCCCOC(=O)c1ccc(NC(=S)NC(=O)c2c(Br)c(C)nn2C)cc1")
4.79
>>> reported_value("Cc1ccc(S(=O)(=O)c2ncccc2[N+](=O)[O-])cc1")
4.77
>>> reported_value("COCCn1c(C)cc(C(=O)CSc2nnc3ccccn23)c1C")
4.51
>>> reported_value("c1c2c(cc3sc(N4CCOCC4)nc13)OCCO2")
4.84
>>> reported_value("COc1ccc(CNC(=O)CCc2c(C)nc3cc(-c4ccccc4OC)nn3c2C)cc1")
4.93
>>> reported_value("Cc1csc(NC(=O)CCc2c(C)nc3cc(-c4ccc(Cl)cc4)nn3c2C)n1")
6.51
>>> reported_value("CN(C)c1ccc(Nc2nc(N)c3ccccc3n2)cc1")
4.96
>>> reported_value("Cc1nc2cc(-c3ccccc3)nn2c(C)c1CCC(=O)N1CCN(c2ccccc2)CC1")
5.75

====

- Tgt: Hypoxia-inducible factor 1-alpha (Homo sapiens) (UniProt Q16665)
- Sequence (Q16665 whole entry, looked up): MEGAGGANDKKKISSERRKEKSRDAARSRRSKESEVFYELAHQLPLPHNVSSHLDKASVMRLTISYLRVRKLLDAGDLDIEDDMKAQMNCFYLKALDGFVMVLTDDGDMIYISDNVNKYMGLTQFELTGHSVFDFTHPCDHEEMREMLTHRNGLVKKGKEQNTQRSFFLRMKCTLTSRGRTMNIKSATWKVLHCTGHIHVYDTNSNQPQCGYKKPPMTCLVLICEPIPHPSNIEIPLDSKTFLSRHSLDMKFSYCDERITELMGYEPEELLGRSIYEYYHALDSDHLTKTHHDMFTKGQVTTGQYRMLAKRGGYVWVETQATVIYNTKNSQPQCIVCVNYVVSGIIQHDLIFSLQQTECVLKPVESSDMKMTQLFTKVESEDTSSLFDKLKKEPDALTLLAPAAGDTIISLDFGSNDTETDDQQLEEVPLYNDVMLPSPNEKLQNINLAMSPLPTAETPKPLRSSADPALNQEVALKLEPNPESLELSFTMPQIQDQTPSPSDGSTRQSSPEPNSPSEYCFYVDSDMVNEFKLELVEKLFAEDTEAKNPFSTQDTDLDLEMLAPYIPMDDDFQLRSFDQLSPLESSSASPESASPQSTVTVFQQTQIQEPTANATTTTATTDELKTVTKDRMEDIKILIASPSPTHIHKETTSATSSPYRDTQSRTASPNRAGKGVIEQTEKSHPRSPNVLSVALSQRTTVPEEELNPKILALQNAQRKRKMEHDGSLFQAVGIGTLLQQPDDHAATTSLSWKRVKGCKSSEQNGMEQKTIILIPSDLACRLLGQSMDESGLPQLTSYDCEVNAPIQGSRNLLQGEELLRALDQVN
- Experiment description: HIF-2a and HIF-1a reporter inhibition panel, dose response, selectivity assay for HIF-2a inhibitor project, cell-based, luminescence (AID 651581)
- Condition context: HIF-1a, run 1
pIC50: −log10 of the molar value.
# key: entry, value: pIC50
Endpoint name: pIC50

>>> reported_value("Cc1c(CCC(=O)N2CCC[C@H]2C(=O)O)c(=O)oc2cc3oc4c(c3cc12)CCCC4")
6.08
>>> reported_value("Cc1csc(NC(=O)c2cn3ccccc3n2)n1")
4.93
>>> reported_value("O=C(Nc1sc2c(c1C(=O)O)CCC2)c1ccccc1Cl")
4.07
>>> reported_value("C/C(=N\\NC(=O)c1n[nH]c2c1CCC2)c1cccs1")
4.86
>>> reported_value("C=C1C(=O)OC2CC3(C)OC3C3OC3C3=CC(OC3=O)C12 (stereo not drawn)")
4.47
>>> reported_value("Nc1ccc(-c2nnn(CC(=O)N3CCCCC3)n2)cc1")
4.80
>>> reported_value("Cc1c(CCC(=O)N2CCC(C(=O)O)(c3ccccc3)CC2)c(=O)oc2cc3oc4c(c3cc12)CCCC4")
5.14
>>> reported_value("COc1ccc(-n2nc3ccc(N)cc3n2)cc1")
4.60

====

- Tgt: Endothelial PAS domain-containing protein 1 (Homo sapiens)
- Experiment description: HIF-2a and HIF-1a reporter inhibition panel, dose response, selectivity assay for HIF-2a inhibitor project, cell-based, luminescence (AID 651581)
- Condition context: HIF-2a, mean of runs
The source made the active and inactive calls. The rule behind the calls is not given here.
Outcomes: t for active, f for inactive

>>> class("COCCn1c(C)cc(C(=O)CSc2nnc(C)s2)c1C")
"t"
>>> class("CSc1ccc(/C=N/Nc2cccc(C(=O)O)c2)cc1")
"t"
>>> class("CN(C)c1ccc(Nc2nc(N)c3ccccc3n2)cc1")
"f"
>>> class("O=c1[nH]c2ccc(Br)cc2c(=O)o1")
"f"
>>> class("COc1ccc(-c2cnc3c(NC=O)cc(-c4cccc(NS(C)(=O)=O)c4)cn23)cc1OC")
"f"
>>> class("O=C(Nc1ccc(N2CCOCC2)cc1)c1cnccn1")
"t"
>>> class("CN(C)S(=O)(=O)c1cccc(NC(=O)CSc2cccc3cccnc23)c1")
"t"
>>> class("O=C(CCCSc1nc2ccccc2s1)NC1=NCCS1")
"t"
>>> class("Cc1c(CCC(=O)N2CCC[C@H]2C(=O)O)c(=O)oc2c(C)c3oc4c(c3cc12)CCCC4")
"t"
>>> class("FC(F)(F)c1cnc(NNC(=S)Nc2ccccc2)c(Cl)c1")
"t"
>>> class("Cc1ccc(C)c(-c2nc3cc(N)ccc3o2)c1")
"t"
>>> class("COC(=O)c1ccc(C(=O)OC)c(-n2c(=O)c3ccccc3c3ccccc3c2=O)c1")
"f"
>>> class("S=C(c1ccc(-c2ccccc2)cc1)N1CCOCC1")
"t"
>>> class("Cn1c(/C=C/c2ccc(Cl)cc2)c([N+](=O)[O-])c(=O)n(C)c1=O")
"f"
>>> class("CCOC(=O)c1cc(-c2csc(-c3ccc(C(C)(C)C)cc3)n2)on1")
"t"
>>> class("COc1ccc(OC)c(S(=O)(=O)ON2C(=O)c3ccccc3C2=O)c1")
"t"
>>> class("COCCn1c(C)cc(C(=O)CSc2nnc3ccccn23)c1C")
"t"
>>> class("Cc1ccc(C(C)C)c(OCc2ccc(C(=O)N/N=C/c3ccc(C(=O)O)cc3)cc2)c1")
"t"
>>> class("CCOC(=O)C1CCN(C(=O)CCc2c(C)nc3cc(-c4ccccc4)nn3c2C)CC1")
"t"
>>> class("O=C(CCCc1nc(-c2ccccc2Cl)no1)NC1CCCC1")
"t"
>>> class("O=C(O)c1cccc(CSc2nnc(-c3ccc(Cl)cc3)o2)c1")
"t"
>>> class("COc1ccccc1N1C(=O)C=C(Sc2nc(C)cc(C)n2)C1=O")
"f"
>>> class("CCOC(=O)Cn1cc(/C=C/[N+](=O)[O-])c2ccccc21")
"f"
>>> class("O=C(O)c1cccc(C(=O)Nc2cccc(NC(=O)C3CCCO3)c2)c1 (centres undefined)")
"f"
>>> class("CCOC(=O)CNC(=O)CSc1nnc(NC(=O)c2ccc(C)cc2)s1")
"t"
>>> class("O=C(O)c1cccc(NC(=S)NC(=O)c2ccc3ccccc3c2)c1")
"f"
>>> class("CC(C)(C)c1ccc(-c2noc(CCC(=O)NCC3CCCO3)n2)cc1 (centres undefined)")
"t"
>>> class("Cc1ccc(C(C)C)c(OCc2ccc(-c3nnco3)cc2)c1")
"t"
>>> class("O=C1C=CC(=O)N1c1ccccc1N1C(=O)C=CC1=O")
"f"
>>> class("Cc1c(CCC(=O)N2CCC[C@H]2C(=O)O)c(=O)oc2cc3oc4c(c3cc12)CCCC4")
"t"
>>> class("CCNC(=O)NC(=O)COC(=O)CCCSc1nc2ccccc2s1")
"t"
>>> class("CCN(CC)S(=O)(=O)c1ccc(NC(=O)c2cccnc2Cl)c(NC(=O)c2cccnc2Cl)c1")
"t"
>>> class("N=c1nc(SCCC(=O)O)ss1")
"t"
>>> class("CCOC(=O)C1CCCN(C(=O)COc2ccc(C(C)(C)C)cc2)CC1 (centres undefined)")
"t"

====

- Tgt: Endothelial PAS domain-containing protein 1 (Homo sapiens)
- Experiment description: HIF-2a and HIF-1a reporter inhibition panel, dose response, selectivity assay for HIF-2a inhibitor project, cell-based, luminescence (AID 651581)
- Condition context: HIF-2a PANC, mean of runs
The source made the active and inactive calls. How the calls were made is not given here.
Endpoint name: IC50

>>> reported_value("O=C(CCCc1nc(-c2ccccc2Cl)no1)NC1CCCC1")
"975 nM"
>>> reported_value("CC(C)c1ccc(/C=N/Nc2ccc(C(=O)O)cc2)cc1")
"< 1000 nM"
>>> reported_value("O=Cc1cn(Cc2cccc([N+](=O)[O-])c2)c2ccccc12")
"> 99000 nM (inactive)"
>>> reported_value("Cc1ccc(NC(=S)NNc2ncc(C(F)(F)F)cc2Cl)cc1")
"1290 nM"
>>> reported_value("Cc1ccc(NC(=O)c2cc(N3C(=O)C=CC3=O)ccc2N2CCOCC2)cc1")
"> 99000 nM (inactive)"
>>> reported_value("CCOc1ccc(-c2cc(CCCC(=O)Nc3cc(OC)ccc3OC)no2)cc1")
"447 nM"
